Catalogue of compounds with associated logP
- PROTOCOL_DETAILS: physchem
- STUDY_CONDITIONS: octanol/buffer
# output: bare number, no unit

Worked cases, logP given:
- SMILES_STRUCTURE: "CC(=O)NCCc1ccc(Cl)c(CN(C(=O)[C@H]2CNCC(=O)N2c2ccc(OCCCOCc3ccccc3)cc2)C2CC2)c1"
  logP: 4.66
- SMILES_STRUCTURE: "CNC(=O)OCCc1ccc(Cl)c(CN(C(=O)[C@H]2CNCC(=O)N2c2ccc(OCCCOCc3ccccc3OC)cc2)C2CC2)c1"
  logP: 4.9
- SMILES_STRUCTURE: "CC(=O)NCc1ccc(Cl)c(CN(C(=O)[C@H]2CNCC(=O)N2c2ccc(OCCOc3c(Cl)cc(C)cc3Cl)nc2)C2CC2)c1"
  logP: 4.47
- SMILES_STRUCTURE: "COc1ccccc1COCCCOc1ccc(N2C(=O)CNC[C@@H]2C(=O)N(C)CCc2ccccc2)cc1"
  logP: 3.9
- SMILES_STRUCTURE: "Cc1cc(Cl)c(OCCOc2ccc(N3C(=O)CNC[C@@H]3C(=O)N(Cc3cc(CNCC(F)F)ccc3Cl)C3CC3)cc2)c(Cl)c1"
  logP: 6.07
- SMILES_STRUCTURE: "COc1ccccc1COCCCOc1ccc(N2C(=O)CNC[C@@H]2C(=O)N(Cc2ccccc2Cl)C2CC2)cc1"
  logP: 5.06

Q: Give logP for `CCNCCc1ccc(Cl)c(CN(C(=O)[C@H]2CNCC(=O)N2c2ccc(OCCCOCc3ccccc3OC)cc2)C2CC2)c1`
Result: 5.31

Q: Give logP for `COc1ccccc1COCCCOc1ccc(N2C(=O)CNC[C@@H]2C(=O)N(Cc2cc(CCNC3CC3)ccc2Cl)C2CC2)cc1`
Result: 5.62

----------
Catalogue of compounds with associated logP
- PROTOCOL_DETAILS: physchem
- STUDY_CONDITIONS: octanol/buffer

Worked cases, logP given:
- SMILES_STRUCTURE: "CN(Cc1ccccc1)C(=O)[C@H]1CNCC(=O)N1c1ccc(OCCCOCc2ccccc2)cc1"
  RESULT: 3.86
- SMILES_STRUCTURE: "Cc1cc(Cl)c(OCCOc2ccc(N3C(=O)CNC[C@@H]3C(=O)N(Cc3cc(CCNC(=O)COC(C)(C)C)ccc3Cl)C3CC3)cc2)c(Cl)c1"
  RESULT: 6.38
- SMILES_STRUCTURE: "CCNCCc1ccc(Cl)c(CN(C(=O)[C@H]2CNCC(=O)N2c2ccc(COC(=O)c3ccccc3)cc2)C2CC2)c1"
  RESULT: 4.98
- SMILES_STRUCTURE: "CCNC(=O)Cc1ccc(Cl)c(CN(C(=O)[C@H]2CNCC(=O)N2c2ccc(OCCCOCc3ccccc3)cc2)C2CC2)c1"
  RESULT: 4.87
- SMILES_STRUCTURE: "CNC(=O)OCc1ccc(Cl)c(CN(C(=O)[C@H]2CNCC(=O)N2c2ccc(OCCCOCc3ccccc3OC)cc2)C2CC2)c1"
  RESULT: 4.81
- SMILES_STRUCTURE: "CC(=O)NCCc1ccc(Cl)c(CN(C(=O)[C@H]2CNCC(=O)N2c2ccc(CCCOc3cccc(Cl)c3)cc2)C2CC2)c1"
  RESULT: 5.45

Q: Give logP for `Cc1cc(Cl)c(OCCOc2ccc(N3C(=O)CNC[C@@H]3C(=O)N(Cc3cc(CNC4CC4)ccc3Cl)C3CC3)cn2)c(Cl)c1`
Result: 5.48

Q: Give logP for `CCNCCc1ccc(Cl)c(CN(C(=O)[C@H]2CNCC(=O)N2c2ccc(OCCCOCc3ccccc3)cc2)C2CC2)c1`
Result: 5.35

Q: Give logP for `CNCc1ccc(Cl)c(CN(C(=O)[C@H]2CNCC(=O)N2c2ccc(CCCOc3cccc(Cl)c3)cc2)C2CC2)c1`
Result: 5.72

----------
- PROTOCOL_DETAILS: physchem
- STUDY_CONDITIONS: octanol/buffer
ASSAY_METRIC: logP
# output: bare number, no unit

Worked cases, logP given:
- SMILES_STRUCTURE: "O=C(c1c(Oc2ccccc2)n(-c2ccccc2)c2cc(Cl)ccc12)N1CCNCC1"
  RESULT_NUMBER: 5.71
- SMILES_STRUCTURE: "COC(=O)NCc1ccc(Cl)c(CN(C(=O)[C@H]2CNCC(=O)N2c2ccc(OCCOc3c(Cl)cc(C)cc3Cl)cc2)C2CC2)c1"
  RESULT_NUMBER: 5.58
- SMILES_STRUCTURE: "COC(=O)NCc1ccc(Cl)c(CN(C(=O)[C@H]2CNCC(=O)N2c2ccc(COC(=O)c3ccccc3)cc2)C2CC2)c1"
  RESULT_NUMBER: 4.48
- SMILES_STRUCTURE: "CNCc1ccc(Cl)c(CN(C(=O)[C@H]2CNCC(=O)N2c2ccc(OCCOc3c(Cl)cc(C)cc3Cl)nc2)C2CC2)c1"
  RESULT_NUMBER: 4.82
- SMILES_STRUCTURE: "CNC(=O)Cc1ccc(Cl)c(CN(C(=O)[C@H]2CNCC(=O)N2c2ccc(CCCOc3c(F)ccc(F)c3F)cc2)C2CC2)c1"
  RESULT_NUMBER: 5.15

--- query ---
Q: Give logP for `O=C(NCc1ccccc1)[C@H]1CNCC(=O)N1c1ccc(CCCOc2cccc(Cl)c2)cc1`
Result: 4.46

----------
- PROTOCOL_DETAILS: physchem
- STUDY_CONDITIONS: octanol/buffer
Catalogue of compounds with associated logP
# output: bare number, no unit

Worked cases, logP given:
- SMILES_STRUCTURE: "Cc1cccc(CN(C(=O)[C@H]2CNCC(=O)N2c2ccc(OCCCOCc3ccccc3)cc2)C2CC2)c1C"
  ASSAY_METRIC: "logP"
  RESULT_NUMBER: 5.11
- SMILES_STRUCTURE: "O=C([C@H]1CNCC(=O)N1c1ccc(OCCCOCc2ccccc2)cc1)N(Cc1ccc(Cl)cc1)C1CC1"
  ASSAY_METRIC: "logP"
  RESULT_NUMBER: 5.11
- SMILES_STRUCTURE: "COc1ccccc1COCCCOc1ccc(N2C(=O)CNC[C@@H]2C(=O)N(Cc2cc(CC(=O)NC3CC3)ccc2Cl)C2CC2)cc1"
  ASSAY_METRIC: "logP"
  RESULT_NUMBER: 5.14
- SMILES_STRUCTURE: "COc1ccccc1COCCCOc1ncc(N2C(=O)CNC[C@@H]2C(=O)N(Cc2cc(CCNC3CC3)ccc2Cl)C2CC2)cn1"
  ASSAY_METRIC: "logP"
  RESULT_NUMBER: 3.61

Q: Give logP for `COc1c(CN(C(=O)[C@H]2CNCC(=O)N2c2ccc(CCCOc3cccc(Cl)c3)cc2)C2CC2)ccnc1C`
Result: 4.29

Q: Give logP for `COCCCc1ccc(Cl)c(CN(C(=O)[C@H]2CNCC(=O)N2c2ccc(OCCOc3c(Cl)cc(C)cc3Cl)cc2)C2CC2)c1`
Result: 6.49

Q: Give logP for `COc1c(CN(C(=O)[C@H]2CNCC(=O)N2c2ccc(OCCCOCc3ccccc3)cc2)C2CC2)ccnc1C`
Result: 3.49

----------
- PROTOCOL_DETAILS: physchem
- STUDY_CONDITIONS: octanol/buffer
Catalogue of molecules with associated logP
# output: bare number, no unit

- SMILES_STRUCTURE: "CCC(=O)NCc1ccc(Cl)c(CN(C(=O)[C@H]2CNCC(=O)N2c2ccc(OCCCOCc3ccccc3OC)cc2)C2CC2)c1"
  logP: 5

--- query ---
Q: Give logP for `O=C(NCc1ccccc1)[C@H]1CNCC(=O)N1c1ccc(CCCOc2c(F)ccc(F)c2F)cc1`
Result: 4.29

----------
- PROTOCOL_DETAILS: physchem
- STUDY_CONDITIONS: octanol/buffer
ASSAY_METRIC: logP
# output: bare number, no unit

Worked cases, logP given:
- SMILES_STRUCTURE: "COc1ccccc1COCCCOc1ccc(N2C(=O)CNC[C@@H]2C(=O)N(Cc2cccc(OC)c2C)C2CC2)cc1"
  logP: 4.72
- SMILES_STRUCTURE: "COc1ccccc1COCCCOc1ncc(N2C(=O)CNC[C@@H]2C(=O)N(Cc2ccc(Cl)cc2)C2CC2)cn1"
  logP: 3.05
- SMILES_STRUCTURE: "COc1ccccc1COCCCOc1ccc(N2C(=O)CNC[C@@H]2C(=O)N(Cc2ccnc(C)c2OC)C2CC2)cc1"
  logP: 3.45
- SMILES_STRUCTURE: "COC(=O)NCCc1ccc(Cl)c(CN(C(=O)[C@H]2CNCC(=O)N2c2ccc(OCCCOCc3ccccc3OC)cc2)C2CC2)c1"
  logP: 4.9
- SMILES_STRUCTURE: "Cc1cc(Cl)c(OCCOc2ccc(N3C(=O)CNC[C@@H]3C(=O)N(Cc3cc(CNC(=O)C4CC4)ccc3Cl)C3CC3)cc2)c(Cl)c1"
  logP: 5.65
- SMILES_STRUCTURE: "COc1ccccc1COCCCOc1ccc(N2C(=O)CNC[C@@H]2C(=O)N(C)Cc2ccccc2Cl)cc1"
  logP: 4.41
- SMILES_STRUCTURE: "CCNC(=O)Cc1ccc(Cl)c(CN(C(=O)[C@H]2CNCC(=O)N2c2ccc(OCCCOCc3ccccc3OC)cc2)C2CC2)c1"
  logP: 4.82
- SMILES_STRUCTURE: "Cc1cc(Cl)c(OCCOc2ccc(N3C(=O)CNC[C@@H]3C(=O)N(Cc3cccc(Cl)c3)C3CC3)cc2)c(Cl)c1"
  logP: 5.87

--- query ---
Q: Give logP for `O=C(CC(F)(F)F)NCCc1ccc(Cl)c(CN(C(=O)[C@H]2CNCC(=O)N2c2ccc(CCCOc3cccc(Cl)c3)cc2)C2CC2)c1`
Result: 6.18

All figures here come from ChEMBL document CHEMBL1944551.
